Target: MutT homolog 1 (MTH1) (Homo sapiens)
Assay readout: pKd
Units for pKd: none; it is -log10 of a concentration expressed in mol/L.

Task: GET /values?readout=pKd&system=MutT homolog 1 (MTH1) (Homo sapiens)&item= Cc1cc(O)c2c(c1)C(=O)c1cc(O)cc(O)c1C2=O [emodin, 1,3,8-trihydroxy-6-methylanthraquinone]
Result: 4.65
